Subject of test: Cytochrome P450 2C19 (Homo sapiens)
Procedure text: blockers of cytochrome P450 2C19 activity – biochemical, luminescence, ADME assay, primary screen (AID 778);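 note: plate controls were negative control wells for no effect and 2.5 mM tranylcypromine positive control for full effect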
Assay setup: CYP2C19 Supersomes, luciferin-H EGE luminescence, 30 min; at 5 µM; hits give high values
About 20,000 (21%) of roughly 96,000 compounds were called active. Not all results are given here. Non-standard residues stand in square brackets, D forms with d. Residues, ends and D or L forms follow the SMILES beside them. ξ: configuration not given here. ξV = CC(C)C(N)C(=O)O
# inhibition per entry
Your answer should be a plain number; it is taken to be in %.

{"Molecule": "O=S(=O)(c1ccc(Br)cc1)n1ccc2ccccc21", "Subject of test": "Cytochrome P450 2C19 (Homo sapiens)", "inhibition (%)": 66.4}
{"Molecule": "O=C(c1ccco1)N(Cc1nc2ccccc2c(=O)[nH]1)C1CCCC1", "Subject of test": "Cytochrome P450 2C19 (Homo sapiens)", "inhibition (%)": 7.2}
{"Molecule": "Clc1ccccc1-c1cc(COc2ccc3ccccc3c2)no1", "Subject of test": "Cytochrome P450 2C19 (Homo sapiens)", "inhibition (%)": 3.1}
{"Molecule": "Cc1cc(NC(=O)COn2nnc3ccccc32)no1", "Subject of test": "Cytochrome P450 2C19 (Homo sapiens)", "inhibition (%)": 28.7}
{"Molecule": "COc1ccc(-c2nn(C)c(=O)c3ccccc23)cc1NC(=O)COc1ccccc1", "Subject of test": "Cytochrome P450 2C19 (Homo sapiens)", "inhibition (%)": 25.6}
{"Molecule": "CCOc1cc(S(=O)(=O)NCc2ccc3c(c2)OCO3)ccc1F", "Subject of test": "Cytochrome P450 2C19 (Homo sapiens)", "inhibition (%)": 91.8}
{"Molecule": "COc1ccc(CNC(=O)C2CCN(S(=O)(=O)N3CCOCC3)CC2)cc1", "Subject of test": "Cytochrome P450 2C19 (Homo sapiens)", "inhibition (%)": -11.9}
{"Molecule": "O=C(Cc1ccc2c(c1)CCCC2)Nc1ccccc1Cl", "Subject of test": "Cytochrome P450 2C19 (Homo sapiens)", "inhibition (%)": 27.1}
{"Molecule": "Cc1ccc(-n2ncc3c(=O)n(-c4ccc(C)c(C)c4)c(-c4ccco4)nc32)cc1", "Subject of test": "Cytochrome P450 2C19 (Homo sapiens)", "inhibition (%)": 30.9}
{"Molecule": "CC(=O)NC(C(=O)NCC(N)=O)C(C)C (stereo not drawn) (Ac-[ξV]-Gly-NH2)", "Subject of test": "Cytochrome P450 2C19 (Homo sapiens)", "inhibition (%)": -4}

Report inhibition under test system Cytochrome P450 2C19 (Homo sapiens) for CC1CC2=C(CC1/C=N/NC(N)=S)C(C)(C)CCC2 (stereo not drawn) .
30.6

Report inhibition under test system Cytochrome P450 2C19 (Homo sapiens) for `CCOc1c(Cl)cc(/C=N/O)cc1OC` .
7.6

Report inhibition under test system Cytochrome P450 2C19 (Homo sapiens) for CCOC(=O)Cn1c(=O)oc2cc(S(=O)(=O)NCC3CCCO3)ccc21 (stereo not drawn) .
-10.4

Report inhibition under test system Cytochrome P450 2C19 (Homo sapiens) for Cn1c2c(c(=O)n(C)c1=O)C(c1ccc(O)cc1)Nc1ccccc1O2 (stereo not drawn) .
2

Report inhibition under test system Cytochrome P450 2C19 (Homo sapiens) for COc1ccc(NC(=O)NC2CC3CCCC(C2)N3Cc2ccccc2)cc1 (stereo not drawn) .
0.4

Report inhibition under test system Cytochrome P450 2C19 (Homo sapiens) for `COc1ccc(CNC2CCCCC2)cc1` .
69.4
